- measurementTarget: Cyclic GMP-AMP synthase (Homo sapiens) (UniProt Q8N884)
- Sequence (Q8N884 whole entry, looked up): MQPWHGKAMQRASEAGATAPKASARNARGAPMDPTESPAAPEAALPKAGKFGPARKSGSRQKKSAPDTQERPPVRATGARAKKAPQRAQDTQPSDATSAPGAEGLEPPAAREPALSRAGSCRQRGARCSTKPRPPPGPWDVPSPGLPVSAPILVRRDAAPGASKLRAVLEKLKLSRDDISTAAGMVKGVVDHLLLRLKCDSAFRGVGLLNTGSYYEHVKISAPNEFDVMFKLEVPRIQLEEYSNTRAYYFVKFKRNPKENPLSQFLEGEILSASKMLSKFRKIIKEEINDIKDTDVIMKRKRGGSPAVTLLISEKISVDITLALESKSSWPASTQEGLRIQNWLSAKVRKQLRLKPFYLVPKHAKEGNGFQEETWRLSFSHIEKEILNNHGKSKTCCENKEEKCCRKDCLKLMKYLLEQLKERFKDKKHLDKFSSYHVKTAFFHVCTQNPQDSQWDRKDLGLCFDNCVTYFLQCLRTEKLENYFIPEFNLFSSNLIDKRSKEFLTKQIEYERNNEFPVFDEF
- experimentalDetails: Primary biochemical luminescence assay for human cyclic GMP-AMP synthase inhibitors (AID 1259398);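 also: 0% = vehicle reaction and 100% = reaction without DNA for no activity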
- assaySetup: recombinant h-cGAS, ATP depletion, Kinase-Glo luminescence; at 12.5 µM; active compounds read high
The campaign covered roughly 290,000 compounds. About 230 (0.079%) were called active. Many of the other results were omitted from the sample, so actives are more common in it than they were.
observable: inhibition (%)
Expressed in %, but write only the number.

See these solved cases before continuing.
Cc1ccnc2nc(C(=O)N3CCCC3CN3CCCC3)nn12 (stereo not given): -10.3
CCCCCN(CC(=O)N(CCCC)Cc1cccn1Cc1ccc(Br)cc1)C(=O)c1ccc2c(c1)OCO2: -1.37
c1ccc(Cc2nn3c(Cn4cnc5ccccc54)nnc3s2)cc1: -1.85
C=CCN(Cc1ccccc1OC)C(=O)c1ccc(NC(C)=O)cc1: 0.115
NC(=O)C1CCCN1C(=O)NC(=O)CSc1ccccc1Cl (stereo not given): 20.8
O=C(Cc1csc(SCC(=O)c2ccccc2)n1)NCCC1=CCCCC1: 7.3

Notebook: `O=C(CSc1nc(=O)n(CCCN2CCOCC2)c2c1CCC2)N1CCc2ccccc21` , inhibition read as -6

get_value(item= `COc1cccc(-c2nc(OCc3ccc(F)cc3)nn2-c2cccc(NC(=O)C3CCC3)c2)c1` , readout=inhibition) returns -6.9

Looking up `CCOC(=O)c1ccc(NC(=O)Cn2c(-c3nnc(C(C)C)o3)cc3ccccc32)cc1` , I see its inhibition listed as -1.71

// inhibition value for `COc1ccccc1OC1CN(Cc2cc(C)[nH]n2)C1` : -4.73
